Taken from patent US6620831B2.

target: CDK2/cyclin A (Homo sapiens); assay: CDK2 inhibitory activity (CDK2/cyclin A, [gamma-32P] ATP, histon H1 or Rb protein substrate); conditions: first IC50 column (c1) of Table 1
pIC50: −log10 of the molar value.
property.name: pIC50

[
  {
    "input.smiles": "O=C(Cc1csc(NCc2ccc(OCc3ccccc3)cc2)n1)Nc1n[nH]c2ccc(N3CCCS3(=O)=O)cc12",
    "target.of.assay": "CDK2/cyclin A (Homo sapiens)",
    "observed": "> 5.00"
  },
  {
    "input.smiles": "CC(=S)Nc1n[nH]c2ccc(N3CCCS3(=O)=O)cc12",
    "target.of.assay": "CDK2/cyclin A (Homo sapiens)",
    "observed": "> 4.30"
  }
]

Query block: GET /values?readout=pIC50&item= CNc1ccc(CC(=O)Nc2n[nH]c3ccc(N4CCCS4(=O)=O)cc23)cc1
Result block: > 7.30

Query block: GET /values?readout=pIC50&item= O=C(Cc1ccc([N+](=O)[O-])cc1)Nc1n[nH]c2ccc(N3CCCS3(=O)=O)cc12
Result block: > 7.30

Query block: GET /values?readout=pIC50&item= Cc1ccccc1CC(=O)Nc1n[nH]c2ccc(N3CCCS3(=O)=O)cc12
Result block: > 7.00

Query block: GET /values?readout=pIC50&item= CCNc1nc(CC(=O)Nc2n[nH]c3ccc(N4CCCS4(=O)=O)cc23)cs1
Result block: > 6.30

Query block: GET /values?readout=pIC50&item= CCOc1cccc(CC(=O)Nc2n[nH]c3ccc(N4CCCS4(=O)=O)cc23)c1
Result block: > 7.30

Query block: GET /values?readout=pIC50&item= O=C(Cn1cnc(-c2ccccc2)c1)Nc1n[nH]c2ccc(N3CCCS3(=O)=O)cc12
Result block: > 7.30

Query block: GET /values?readout=pIC50&item= O=C(Cn1cnc(-c2ccc(Br)cc2)c1)Nc1n[nH]c2ccc(N3CCCS3(=O)=O)cc12
Result block: > 7.00

Query block: GET /values?readout=pIC50&item= CC(=NO)Nc1n[nH]c2ccc(N3CCCS3(=O)=O)cc12
Result block: > 4.00

Query block: GET /values?readout=pIC50&item= CS(=O)(=O)c1ccc(CC(=O)Nc2n[nH]c3ccc(N4CCCS4(=O)=O)cc23)cc1
Result block: > 7.30

Query block: GET /values?readout=pIC50&item= CCOc1ccc(CC(=O)Nc2n[nH]c3ccc(N4CCCS4(=O)=O)cc23)cc1Cl
Result block: > 7.00

Query block: GET /values?readout=pIC50&item= O=C(Cc1ccc(S(=O)(=O)N2CCOCC2)cc1)Nc1n[nH]c2ccc(N3CCCS3(=O)=O)cc12
Result block: > 7.00

Query block: GET /values?readout=pIC50&item= O=C(Cc1ccc(N2CCOCC2)cc1)Nc1n[nH]c2ccc(N3CCCS3(=O)=O)cc12
Result block: > 7.00

Query block: GET /values?readout=pIC50&item= CC(C)(C)OC(=O)Nc1nc(CC(=O)Nc2n[nH]c3ccc(N4CCCS4(=O)=O)cc23)cs1
Result block: > 7.00

Query block: GET /values?readout=pIC50&item= O=C(Cc1ccc(N(Cc2ccccc2)Cc2ccccc2)cc1)Nc1n[nH]c2ccc(N3CCCS3(=O)=O)cc12
Result block: > 6.30
